These measurements were taken from ChEMBL document CHEMBL3352043.

Target: Androgen receptor (Homo sapiens)
Sequence (P10275 whole entry): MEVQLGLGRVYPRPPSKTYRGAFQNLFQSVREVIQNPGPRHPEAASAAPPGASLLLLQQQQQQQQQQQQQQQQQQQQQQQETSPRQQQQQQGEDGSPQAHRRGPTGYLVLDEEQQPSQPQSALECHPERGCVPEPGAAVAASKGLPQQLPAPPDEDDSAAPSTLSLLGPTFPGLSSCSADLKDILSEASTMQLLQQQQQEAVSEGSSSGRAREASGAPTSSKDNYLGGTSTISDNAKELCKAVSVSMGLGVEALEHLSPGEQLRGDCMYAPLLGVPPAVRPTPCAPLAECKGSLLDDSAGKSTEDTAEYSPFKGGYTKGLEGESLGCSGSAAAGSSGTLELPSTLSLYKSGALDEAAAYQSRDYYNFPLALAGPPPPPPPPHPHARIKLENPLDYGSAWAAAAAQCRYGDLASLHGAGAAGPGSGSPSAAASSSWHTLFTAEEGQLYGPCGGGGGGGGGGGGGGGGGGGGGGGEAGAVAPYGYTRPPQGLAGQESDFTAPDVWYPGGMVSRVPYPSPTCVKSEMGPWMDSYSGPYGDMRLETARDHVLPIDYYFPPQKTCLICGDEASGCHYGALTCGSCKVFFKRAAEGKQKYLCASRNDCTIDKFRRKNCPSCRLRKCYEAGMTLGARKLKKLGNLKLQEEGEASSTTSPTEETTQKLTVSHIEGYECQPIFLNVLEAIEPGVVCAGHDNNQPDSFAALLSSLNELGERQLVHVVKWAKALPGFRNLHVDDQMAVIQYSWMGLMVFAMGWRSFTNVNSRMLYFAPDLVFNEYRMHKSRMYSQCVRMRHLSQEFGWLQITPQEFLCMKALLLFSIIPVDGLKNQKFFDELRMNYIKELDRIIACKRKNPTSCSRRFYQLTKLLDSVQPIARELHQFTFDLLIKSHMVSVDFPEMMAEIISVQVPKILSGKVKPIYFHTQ
Assay: Inhibition of androgen receptor in human LNCaP cells assessed as inhibition of prostate-specific antigen secretion into media after 3 days
Format: cell-based
# key: entry, value: IC50
Answer in nM, number only, no unit symbol.

The cases that follow already have their IC50 on record.
>>> observed_value("c1ccc(-c2csc(-c3ccncc3)n2)cc1")
630
>>> observed_value("Clc1ccc(-c2csc(N3CCOCC3)n2)cc1Cl")
2960
>>> observed_value("Clc1ncn(-c2csc(N3CCOCC3)n2)c1Br")
440
>>> observed_value("Clc1ccc(-c2csc(N3CCOCC3)n2)c(Cl)c1")
1320
>>> observed_value("c1ccc(-c2csc(N3CCCCC3)n2)cc1")
690
>>> observed_value("FC(F)(F)c1cccc(-c2csc(N3CCOCC3)n2)c1")
580
>>> observed_value("Oc1ccc(-c2nc(-c3c[nH]c4ccccc34)cs2)cc1")
6460
>>> observed_value("Cc1scc(-c2csc(N3CCOCC3)n2)c1C")
430
>>> observed_value("Oc1c(F)cccc1-c1csc(N2CCOCC2)n1")
150
>>> observed_value("Nc1ccccc1-c1csc(N2CCOCC2)n1")
2030

Prompt: Report measured IC50; entry is Oc1c(-c2csc(N3CCOCC3)n2)ccc(F)c1F
Response: 700

Prompt: Report measured IC50; entry is c1ccc(-c2csc(N3CCOCC3)n2)cc1
Response: 280

Prompt: Report measured IC50; entry is c1ccc(-c2cc(N3CCOCC3)cs2)cc1
Response: 840

Prompt: Report measured IC50; entry is Cc1ncn(-c2csc(N3CCOCC3)n2)c1C
Response: 2420

Prompt: Report measured IC50; entry is Brc1ncn(-c2csc(N3CCOCC3)n2)c1Br
Response: 170
